Recorded Kd, one value per entry.
target: monomeric alpha-synuclein, P37840; test: SPR, captured mAb; conditions: remark: other sources report otherwise
measurement_label: Kd (nM)

1) ACI-7067-1107G5-Ab2 (antibody, V domains shown) VH: QVQLQQPGTELVKPGASVKLSCKASGYTFTKYWMHWVKQRPGQGLEWIGNINPNNGDTNYNEKFKSKATLTVDKSSSTAYMQLSSLTSEDSAVYYCAIAMDYWGQGTSVTVSS VL: DIQMTQSPSSLSAFLGERVSLTCRASQDIGNNLNWFQQEPDGTIKRLIYATSSLDSGVPKRFSGSRSGSEYSLTISSLESEDFVDYYCLQFGSSPLTFGAGTKLELK	7.2
2) ACI-7067-1106A8-Ab2 (antibody, V domains shown) VH: EVQLVESGGGLVQPKGSLKLSCAASGFTFNTYAMHWVRQAPGKGLEWVARIRSKGSNYATNYADSVKDRFTISRDDSQSMLYLQMNNLKTEDTAMYYCVRGHGSSYFSYWGQGTLVTVSA VL: QIVLTQSPAIMSASPGEKVTMTCSASSSVSYMHWYQQKSGTSPKRWIYDTSNLASGVPARFSGSGSGTSYSLTISSMEAEDAATYYCQQWNSHPPTFGAGTKLELK	23.2
3) ACI-8033-18C11-Ab1 (antibody, V domains shown) VH: QVQLQQPGAELVKPGASVKMSCKAAGYTFSSYWITWVRQRPGQGLDWIGDIYPGGGVTNYNEKFKTKATLTVDTSSSTAYMQLSSLTSEDSAVYYCATAQTTFAYWGQGTLVTVSA VL: DVLMTQTPLSLPVSLGDQASISCRSSQNIVHNNGNTYLEWYLQKPGQSPKLLIYKVSNRFSGVPDRFSGSGSGTDFTLKISRVEAEDLGVYYCFQGSHVPRTFGGGTKLEIK	1.8

Origin of values: patent US20250340623A1
